Ref: PubChem BioAssay

# RUN_DESCRIPTION: RAM signaling pathway blockade in yeast – S. cerevisiae, Pdr1DBD-CYC8 efflux-inhibited sensitized strain, primary screen (AID 1298);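 note: 0% = DMSO untreated cells without growth and 100% = 10 µM 1-NA-PP1 full growth; higher means more yeast growth rescued from 5-FOA killing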
# CONDITION_PARAMETERS: S. cerevisiae cbk1-as DSE1-URA3 strain, 5-FOA growth OD615, 2 d; at 50 µM; active compounds read high
MEASURED_PARAMETER: RAM network inhibition (%)
One number for each entry, in %.

# count of solved cases: 10
> print(dat)
                                    compound  numeric.value
 1        O=C(CSc1nnc(COc2ccccc2)o1)Nc1nccs1           3.24
 2  COc1cc(OC)cc(C(=O)Nn2cc(C(=O)N3CCN(C)CC3)c3ccccc3c2=O)c1           3.86
 3           COc1cc2c(cc1NC(=O)c1ccco1)CCCC2           2.56
 4  COc1ccc(C)cc1NC(=O)CN(c1ccccc1)S(C)(=O)=O           5.82
 5  CCCCCCNC(=O)C(C(=O)OCC)C1CCCCC1 (stereo not drawn)           3.88
 6          COc1cccc(/C=C2\N=C(SC)SC2=O)c1OC           8.12
 7  CC1(C)CC(=O)C2=C(C1)N(c1ccc(F)cc1)C(=O)CC2c1cccnc1 (stereo not drawn)           5.94
 8  O=C(CCCOc1ccccc1)NCC1CCCO1 (stereo not drawn)           0.83
 9      CCNc1nc(Oc2ccc(C(=O)OCC)cc2)nc(SC)n1           2.82
10  CCOC(=O)c1c(NC(=O)c2cc(C3CC3)on2)sc(C(C)=O)c1C          -0.58

Please supply RAM network inhibition for each of the following items, keeping them in order.
1. COc1ccc(-c2noc(Cc3ccccc3OC)n2)cc1
2. CN(Cc1ccco1)C(=O)C(Cc1ccccc1)NS(=O)(=O)c1ccc2c(c1)CCC(=O)N2 (stereo not drawn)
3. COc1ccc(C(c2sc3nc(C)nn3c2O)N2CCC(C(N)=O)CC2)cc1OC (stereo not drawn)
4. Cc1ccc(-c2nc(CS(=O)CC(=O)NCCC(C)C)c(C)o2)cc1 (stereo not drawn)

[1.94, 3.45, 3.49, 3.42]

* * *

# RUN_DESCRIPTION: SK-BR-3 cell growth inhibitors, pilot screen, 24 h, human (AID 572);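 note: compound exposure lasted between 18 and 24 h rather than exactly 24 h; 100% = carrier-treated control wells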
# CONDITION_PARAMETERS: SK-BR-3 viability, CellTiter-Glo luminescence, at 10 µM, active compounds read low
MEASURED_PARAMETER: viability (%)
Answers are plain numbers, in %.

> print(dat)
                                   compound  measured.parameter  endpoint.unit  numeric.value
1                CC(C)=CC(=O)N1CCCc2ccccc21           viability              %            112
2  O=C1CC(c2ccccc2)n2nc(NC(=O)c3ccccn3)nc2N1 (stereo unspecified)           viability              %            104
3                  CN(C)c1ccc(CNn2cnnc2)cc1           viability              %            104
4               CC(=O)NS(=O)(=O)c1ccc(N)cc1           viability              %            118
5                  O=C(CCc1ccccc1)Nc1ccncc1           viability              %            110

Please supply viability for each of the following items, keeping them in order.
1. OC(COc1ccc2ccccc2c1)CN1CCOCC1 (stereo unspecified)
2. COCCN(C(=O)CCC(=O)Nc1ccccn1)C(C(=O)NC1CCCC1)c1ccc(OC)cc1 (stereo unspecified)

1: 98.5; 2: 106

Please supply viability for each of the following items, keeping them in order.
1. O=C(CCNS(=O)(=O)c1ccc(Cl)cc1)NCc1ccccn1
2. CCCC1(C(=O)OCC)NC(c2ccc(N(C)C)cc2)C2C(=O)N(c3ccccc3)C(=O)C21 (stereo unspecified)
3. COc1ccc(C2CC(c3ccc(Cl)cc3)Nc3nc(NC(=O)c4ccco4)nn32)cc1 (stereo unspecified)

1: 97.5; 2: 109; 3: 90.5

Please supply viability for each of the following items, keeping them in order.
1. O=C(CCCN1CC=C(n2c(=O)[nH]c3ccccc32)CC1)c1ccc(F)cc1
2. CCn1c(SC)nc2c(c1=O)SC(C)C2 (stereo unspecified)
3. O=C(CSc1ncnc2c1cnn2Cc1ccccc1)Nc1ccc2c(c1)OCCO2
4. Cc1cccc(Cn2c(=O)n(Cc3ccco3)c(=O)c3ccccc32)c1

1: 77; 2: 111; 3: 109; 4: 87

Please supply viability for each of the following items, keeping them in order.
1. COc1ccc(NS(=O)(=O)c2c(C)[nH]c(=O)[nH]c2=O)c(OC)c1
2. O=C(C1CCCN(S(=O)(=O)c2cnc[nH]2)C1)N1CCN(c2ccc(Cl)cc2)CC1 (stereo unspecified)
3. Cc1cc(C)c2c(C)nn(C3CCCCC3)c2n1
4. CCOc1ccc2[nH]c(=O)c(C(c3nnnn3Cc3ccco3)N3CCC(C)CC3)cc2c1 (stereo unspecified)
5. CCn1nnnc1SCC(=O)Nc1nnc(C(C)C)s1
6. CN1CCN(C(=O)CCC(=O)c2ccc(F)cc2)CC1

88.5
85.5
81.5
80.5
88.5
114

Please supply viability for each of the following items, keeping them in order.
1. CCOc1c(C)cc2[nH]c(CCC(=O)O)nc2c1C
2. C=CCn1c(=O)c2ccccc2n2c(SCC(=O)Nc3cc(C)on3)nnc12
3. COC(=O)C1=C(C)OC(N)=C(C#N)C1c1c(C)nn(-c2ccccc2)c1Cl (stereo unspecified)
4. O=C(c1cccs1)N1CCN=C1SCc1ccccc1
5. c1ccc(Cn2nnnc2CN2CCN(c3ncccn3)CC2)cc1
6. Cc1cnc(-c2nnc(N(C)C(=O)C3CCOC3)s2)cn1 (stereo unspecified)

123
92.5
89
120
99
90.5

Please supply viability for each of the following items, keeping them in order.
1. COc1ccc(/C=N/n2c(=O)[nH]c3c([nH]c4ccc(C)cc43)c2=O)cc1CN1CCOCC1
2. CCOC(=O)C1C2C=CC3(CN(c4cccc(Cl)c4)C(=O)C13)O2 (stereo unspecified)
3. Cc1onc(-c2ccccc2Cl)c1C(=O)Nc1cccc(-c2cn3cccnc3n2)c1
4. CCN(CC)CCN1C(=O)C(=O)/C(=C(/O)c2c(C)[nH]c(C(=O)OC)c2C)C1c1ccccc1OC (stereo unspecified)
5. CCS(=O)(=O)CCn1c([N+](=O)[O-])cnc1C
6. Cc1ccc(-c2nn(-c3ccccc3)cc2CN(Cc2ccccc2)C(=O)CCC(=O)O)o1
7. Cn1c(SCc2ccc3c(c2)OCO3)nnc1-c1ccccc1

1. 112
2. 86
3. 104
4. 104
5. 89.5
6. 100
7. 99.5

Please supply viability for each of the following items, keeping them in order.
1. CC(C(=O)Nc1ccccc1-c1ccccc1)N1CCOCC1 (stereo unspecified)
2. O=C(NCCC1=CCCCC1)C1CCN(S(=O)(=O)c2cccc3nsnc23)CC1
3. CCCc1nc(N2CCOCC2)c(C#N)c2c1CCCC2
4. CC(=O)N(C(C)=O)c1c(C#N)c(C)n(-c2ccccc2)c1C(=O)c1ccccc1
5. CC(=O)c1ccc(NS(=O)(=O)c2ccccc2)cc1

[108, 104, 81, 86.5, 95]

Please supply viability for each of the following items, keeping them in order.
1. Cc1cc(N2C(=O)C3C4C=CC(C4)C3C2=O)ccc1Br (stereo unspecified)
2. Cc1ccc(S(=O)(=O)N2CCN(CCO)CC2)cc1-c1nnc2c3ccccc3c(C)nn12
3. Cc1ccc(C(=O)OCC(=O)c2ccc(Cl)s2)s1
4. NC(N)=NS(=O)(=O)c1ccc(N)cc1

107
104
93.5
100
